- assayed-system: BRAF-GTP-KRAS-G12C complex (Homo sapiens, UniProt P01116+P62937, G12C)
- Construct: 50 nM of His6-KRas G12C-GTP (1-169); 500 nM of tagless CypA (1-165)
- test-description: KRAS-BRAF complex disruption through competition with CYPA-compound by TR-FRET
- condition-context: biochemical BRAF-KRAS G12C-GTP disruption assay EC50, with CYPA
measurement-type: EC50

{"columns": ["compound", "measurement-type", "reported"],
 "data": [
  ["CC(C)[C@@H](C(=O)N[C@H]1Cc2cc(O)cc(c2)-c2ccc3c(Cl)cn(c3c2)CC(C)(C)COC(=O)[C@@H]2CCCN(N2)C1=O)N(C)C(=O)C1CN(C(=O)CCl)C1", "EC50", "≤ 500 nM"],
  ["CC(C)[C@@H](C(=O)N[C@H]1Cc2cc(O)cc(c2)-c2cc3c(ccn3CC(C)(C)COC(=O)[C@@H]3CCCN(N3)C1=O)cn2)N(C)C(=O)C1CN(C(=O)CCl)C1", "EC50", "500 to 5000 nM"],
  ["C=CC(=O)N1CCCC1C(=O)N(C)C(C(=O)NC1Cc2cc(O)cc(c2)-c2ccc3c(C(F)F)nn(c3c2)CC(C)COC(=O)C2CCCN(N2)C1=O)C(C)C (centres unmarked)", "EC50", "> 5000 nM"],
  ["CC1COC(=O)[C@@H]2CCCN(N2)C(=O)[C@@H](NC(=O)[C@H](C(C)C)N(C)C(=O)C2CN(C(=O)CCl)C2)Cc2cc(O)cc(c2)-c2ccc3c(c2)N(CCO3)C1 (single isomer, unassigned) [Compound 184]", "EC50", "500 to 5000 nM"],
  ["Cc1nc2ccc3cc2n1C[C@@H](C)COC(=O)[C@@H]1CCCN(N1)C(=O)[C@@H](NC(=O)[C@H](C(C)C)N(C)C(=O)C1CN(C(=O)CCl)C1)Cc1cc(O)cc-3c1", "EC50", "500 to 5000 nM"]
]}

###

Listing of entries alongside the reported Kd.
- assayed-system: cyclophilin A (CYPA) (Homo sapiens, UniProt P62937)
- test-description: CYPA-compound binary complex formation by SPR
- condition-context: read-out: CYPA Binding Affinity
measurement-type: Kd

{"columns": ["chem-smiles", "assayed-system", "reported"],
 "data": [
  ["CC(C)[C@@H](C(=O)N[C@H]1Cc2cc(O)cc(c2)-c2ccc3c(C(C)(C)C#N)c(C#N)n(c3c2)C[C@H](C)COC(=O)[C@@H]2CCCN(N2)C1=O)N(C)C(=O)C1CN(C(=O)CCl)C1", "cyclophilin A (CYPA) (Homo sapiens, UniProt P62937)", "≤ 5 µM"],
  ["CC(C)[C@@H](C(=O)N[C@H]1Cc2cc(O)cc(c2)-c2ccc3c(C4(C#N)CCC4)cn(c3c2)C[C@H](C)COC(=O)[C@@H]2CCCN(N2)C1=O)N(C)C(=O)C1CN(C(=O)CCl)C1", "cyclophilin A (CYPA) (Homo sapiens, UniProt P62937)", "5 to 15 µM"],
  ["CC(C)[C@@H](C(=O)N[C@H]1Cc2cc(O)cc(c2)-c2ccc3ncn(c3c2)CC(C)(C)COC(=O)[C@@H]2CCCN(N2)C1=O)N(C)C(=O)C1CN(C(=O)CCl)C1", "cyclophilin A (CYPA) (Homo sapiens, UniProt P62937)", "5 to 15 µM"],
  ["Cc1nc2ccc3cc2n1CC(C)(C)COC(=O)[C@@H]1CCCN(N1)C(=O)[C@@H](NC(=O)[C@H](C(C)C)N(C)C(=O)CN1CC=CC1=O)Cc1cc(O)cc-3c1", "cyclophilin A (CYPA) (Homo sapiens, UniProt P62937)", "5 to 15 µM"],
  ["CC(C)[C@@H](C(=O)N[C@H]1Cc2cc(O)cc(c2)-c2ccc3c(C(C)(C)C#N)cn(c3c2)CC(C)(C)COC(=O)[C@@H]2CCCN(N2)C1=O)N(C)C(=O)C1(F)CN(C(=O)[C@@H](C)Cl)C1", "cyclophilin A (CYPA) (Homo sapiens, UniProt P62937)", "5 to 15 µM"]
]}

###

- assayed-system: cyclophilin A (CYPA) (Homo sapiens)
- test-description: CYPA-compound binary complex formation by SPR
- condition-context: read-out: CYPA Binding Affinity
pKd: −log10 of the molar value.

{"columns": ["molecule", "pKd"],
 "data": [
  ["CC(C)[C@@H](C(=O)N[C@H]1Cc2cc(O)cc(c2)-c2ccc3c(C(C)(C)C#N)cn(c3c2)C[C@H](C)COC(=O)[C@@H]2CCCN(N2)C1=O)N1CC[C@@H](NC(=O)CCl)C1=O", "≥ 5.30"],
  ["CC(C)C1COC(=O)[C@@H]2CCCN(N2)C(=O)[C@@H](NC(=O)[C@H](C(C)C)N(C)C(=O)C2CN(C(=O)CCl)C2)Cc2cc(O)cc(c2)-c2ccc3c(C(C)(C)C#N)cn(c3c2)C1 (some centres unmarked)", "4.82 to 5.30"],
  ["C=CC(=O)N1CCN([C@H](C(=O)N[C@H]2Cc3cncc(c3)-c3ccc4nc(CC)n(c4c3)CCCOC(=O)[C@@H]3CCCN(N3)C2=O)C(C)C)C1=O", "4.82 to 5.30"],
  ["CC(C)[C@@H](C(=O)N[C@H]1Cc2cc(O)cc(c2)-c2ccc3c(C#N)ccc(c3c2)OCCCOC(=O)[C@@H]2CCCN(N2)C1=O)N(C)C(=O)C1CN(C(=O)CCl)C1", "≥ 5.30"],
  ["Cc1nc2ccc3cc2n1C[C@H](C)COC(=O)[C@@H]1CCCN(N1)C(=O)[C@@H](NC(=O)[C@H](C(C)C)N(C)C(=O)C1CN(C(=O)CCl)C1)Cc1cc(O)cc-3c1", "≥ 5.30"]
]}

###

- assayed-system: UniProtKB P62937
- test-description: CYPA-compound binary complex formation by SPR
- condition-context: read-out: CYPA Binding Affinity
Listing of entries alongside the reported Kd.

{"columns": ["compound", "Kd"],
 "data": [
  ["CC(C)C(C(=O)NC1Cc2cc(O)cc(c2)-c2ccc3c(C(C)(C)C#N)cn(c3c2)CC(F)COC(=O)C2CCCN(N2)C1=O)N(C)C(=O)C1CN(C(=O)CCl)C1 (single isomer, unassigned)", "5 to 15 µM"],
  ["CC(C)[C@@H](C(=O)N[C@H]1Cc2cc(O)cc(c2)-c2ccc3c(C(C)(C)C#N)cn(c3c2)C[C@H](C)COC(=O)[C@@H]2CCCN(N2)C1=O)N1CC[C@@H](N(C)C(=O)CCl)C1=O", "≤ 5 µM"],
  ["CC1=C(C)C(=O)N(CC(=O)N(C)[C@H](C(=O)N[C@H]2Cc3cc(O)cc(c3)-c3ccc4ncn(c4c3)CCCOC(=O)[C@@H]3CCCN(N3)C2=O)C(C)C)C1=O", "5 to 15 µM"],
  ["COCC1COC(=O)C2CCCN(N2)C(=O)C(NC(=O)C(C(C)C)N(C)C(=O)C2CN(C(=O)CCl)C2)Cc2cc(O)cc(c2)-c2ccc3c(C(C)(C)C#N)cn(c3c2)C1 (single isomer, unassigned)", "5 to 15 µM"],
  ["CC1COC(=O)C2CCCN(N2)C(=O)C(NC(=O)C(C(C)C)N(C)C(=O)C2CN(C(=O)CCl)C2)Cc2cc(O)cc(c2)-c2ccc3c(C(C)C#N)cn(c3c2)C1 (centres unmarked)", "≤ 5 µM"]
]}

###

- Tested on: pERK in H358 cells
- test-description: pERK inhibition in H358 cells
- Assay type: cell-based, human
- condition-context: 4 hours treatment, read-out: Cellular pERK inhibition
Listing of entries alongside the reported IC50.

{"columns": ["compound", "assayed-system", "IC50"],
 "data": [
  ["Cc1cnn(C)c1-c1cn2c3cc(ccc13)-c1cc(O)cc(c1)C[C@H](NC(=O)[C@H](C(C)C)N(C)C(=O)C1CN(C(=O)CCl)C1)C(=O)N1CCC[C@H](N1)C(=O)OCC(C)(C)C2", "pERK in H358 cells", "1 to 10 µM"],
  ["CC(C)[C@@H](C(=O)N[C@H]1Cc2cc(O)cc(c2)-c2ccc3ncn(c3c2)CC(C)(C)COC(=O)[C@@H]2CCCN(N2)C1=O)N(C)C(=O)C1CN(C(=O)CCl)C1", "pERK in H358 cells", "> 10 µM"],
  ["C=CC(=O)N1CCC1C(=O)N(C)C(C(=O)NC1Cc2cc(O)cc(c2)-c2ccc3c(C(F)F)nn(c3c2)CC(C)COC(=O)C2CCCN(N2)C1=O)C(C)C (stereo not shown) [Compound 203]", "pERK in H358 cells", "> 10 µM"],
  ["CC1COC(=O)C2CCCN(N2)C(=O)C(NC(=O)C(C(C)C)N(C)C(=O)C2CN(C(=O)CCl)C2)Cc2cc(O)cc(c2)-c2ccc3c(-c4ccccc4C#N)cn(c3c2)C1 (stereo not shown)", "pERK in H358 cells", "≤ 1 µM"],
  ["C=CC(=O)N1CCC(C(=O)N(C)C(C(=O)NC2Cc3cc(O)cc(c3)-c3ccc4c(c3)c(cn4C(C#N)(CC)CC)CC(C)(C)COC(=O)C3CCCN(N3)C2=O)C(C)CC)C1 (stereo not shown)", "pERK in H358 cells", "≤ 1 µM"],
  ["CC(C)C(C(=O)NC1Cc2cc(O)cc(c2)-c2ccc3c(C(C)(C)C#N)cn(c3c2)CC(Cl)COC(=O)C2CCCN(N2)C1=O)N(C)C(=O)C1CN(C(=O)CCl)C1 (single isomer, unassigned)", "pERK in H358 cells", "1 to 10 µM"],
  ["C#Cc1nn2c3cc(ccc13)-c1cc(O)cc(c1)C[C@H](NC(=O)[C@H](C(C)C)N(C)C(=O)C1CN(C(=O)CCl)C1)C(=O)N1CCC[C@H](N1)C(=O)OCC(C)(C)C2", "pERK in H358 cells", "> 10 µM"],
  ["CC1COC(=O)C2CCCN(N2)C(=O)C(NC(=O)C(C(C)C)N(C)C(=O)C2CN(C(=O)CCl)C2)Cc2cc(O)cc(c2)-c2ccc3c(c2)N(C1)CC3(C)C#N (mixture of isomers)", "pERK in H358 cells", "1 to 10 µM"],
  ["CC(C)[C@@H](C(=O)N[C@H]1Cc2cc(O)cc(c2)-c2ccc3c(C(C)(C)C#N)cn(c3c2)CC(CC#N)COC(=O)[C@@H]2CCCN(N2)C1=O)N(C)C(=O)C1CN(C(=O)CCl)C1 (stereo partly shown)", "pERK in H358 cells", "> 10 µM"],
  ["CC(C)C(C(=O)NC1Cc2cc(O)cc(c2)-c2ccc3c(C(C)(C)C#N)cn(c3c2)CC(CF)COC(=O)C2CCCN(N2)C1=O)N(C)C(=O)C1CN(C(=O)CCl)C1 (mixture of isomers)", "pERK in H358 cells", "1 to 10 µM"]
]}
